Cited source for all entries: patent US20250277022A1

Below: a set of entries, each annotated with reported EC50 (read off the curve).
- measured target: T1, cynomolgus monkey TSLP (cynomolgus monkey, UniProt A0A7N9CAT7 29-159)
- T1 construct: also called cynomolgus TSLP; recombinant cynomolgus monkey TSLP
- T1 sequence (A0A7N9CAT7 entry or part of it): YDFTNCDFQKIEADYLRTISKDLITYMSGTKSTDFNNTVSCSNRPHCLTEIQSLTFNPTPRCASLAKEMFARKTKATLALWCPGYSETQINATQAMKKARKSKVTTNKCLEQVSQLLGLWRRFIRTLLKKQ
- assay notes: ELISA, plate coated with cynomolgus monkey TSLP, test antibodies as human IgG1

Field: example entries. Status: answers known.
TSLP-0106 (antibody, V domains shown) VH: QVQLQESGPGLVKPSETLSLTCTVSGYSISSGYGWSWIRQPPGKGLEWIGYISYYGSISYNPSLKSRVTISVDTSKNQFSLKLSSVTAADTAVYYCARTNLLYFDSWGQGTLVTVSS VL: EIVMTQSPATLSLSPGERATLSCRASQSVSNNLAWYQQKPGQAPRLLIYDASSRATGIPARFSGSGSGTDFTLTISSLEPEDFAVYYCQQYSDWPQYTFGQGTKVEIK = ~0.9 µg/mL
TSLP-0104 (antibody, V domains shown) VH: QVQLQESGPGLVKPSETLSLTCAVSGYSISSGYGWSWIRQPPGKGLEWIGYISYYGSISYNPSLKSRVTISVDTSKNQFSLKLSSVTAADTAVYYCARTNLLYFDSWGQGTLVTVSS VL: EIVMTQSPATLSLSPGERATLSCRASQSVSNNLAWYQQKPGQAPRLLIYDASSRATGIPARFSGSGSGTDFTLTISSLEPEDFAVYYCQQYSDWPQYTFGQGTKVEIK = ~0.7 µg/mL

The recorded EC50 (read off the curve) for TSLP-01 (antibody, V domains shown, also called parent antibody TSLP-01) VH: QVQLQESGPGLVKPSETLSLTCAVSGYSISSGYGWSWIRQPPGKGLEWIGYISYYGSISYNPSLKSRVTISRDTSKNQFSLKLSSVTAADTAVYYCARTNLLYFDSWGQGTLVTVSS VL: EIVMTQSPATLSLSPGERATLSCRASQSVSNNLAWYQQKPGQAPRLLIYDASSRATGIPARFSGSGSGTDFTLTISSLEPEDFAVYYCQQYSDWPQYTFGQGTKVEIK is ~0.5 µg/mL

Data point: TSLP-0102 (antibody, V domains shown) VH: QVQLQESGPGLVKPSETLSLTCTVSGYSISSGYGWSWIRQPPGKGLEWIGYISYYGSISYNPSLKSRVTISRDTSKNQFSLKLSSVTAADTAVYYCARTNLLYFDSWGQGTLVTVSS VL: EIVMTQSPATLSLSPGERATLSCRASQSVSNNLAWYQQKPGQAPRLLIYDASSRATGIPARFSGSGSGTDFTLTISSLEPEDFAVYYCQQYSDWPQYTFGQGTKVEIK ; EC50 (read off the curve) = ~0.7 µg/mL
